tested-on: PDE2 (Bos taurus)
Construct: PDE2 was prepared from bovine endothelial cells by the same methods; endogenous in cells; host or cells: bovine endothelial cells
assay-summary: Inhibition of PDE2, radioenzymatic phosphodiesterase assay
Assay type: biochemical, bovine
measurement-context: 10 μM test compound; PDE2 from bovine endothelial cells; read-out: PDE2 percentage inhibition at 10 μM
Each entry gets condition not met if its inhibition at 10 µM stays under 30%, and condition met if its inhibition at 10 µM is 30% or above.

In [3]: df
Out[3]:
                                   compound                cat
0  COc1cc2c(cc1OC)-n1ccnc1CN=C2c1cccc(C(N)=O)c1 [Compound 11b]      condition met
1  COc1cc2c(cc1OC)N(C)C(=O)CN=C2c1cccc(NC(C)=O)c1 [Compound 17n]      condition met
2  COc1cc2c(c(Br)c1OC)N(C)C(=O)CN=C2c1cccc(C(N)=O)c1 [Compound 5d]  condition not met
3  COc1cc2c(cc1OC)N(C)C(=O)CN=C2c1cccc(C(=O)N(C)C)c1 [Compound 36d]  condition not met
4  COc1cc2c(cc1OC)N(C)C(=O)CN=C2c1cccc(C(N)=S)c1 [Compound 9a]      condition met
5  COc1cc2c(cc1OC)N(C)C(=O)CN=C2c1cccc(C(=O)NC(C)C)c1 [Compound 36a]      condition met
6  COc1cc2c(cc1OC)N(C)C(=O)CN=C2c1cccc(C(=O)O)c1 [Compound 35a]  condition not met
7  COc1cc2c(cc1OC)N(C)C(=O)CN=C2c1cccc(CNC(C)=O)c1 [Compound 8b]  condition not met

###

The following compounds are shown together with reported inhibition at 10 µM values.
tested-on: PDE5 (Bos taurus)
Construct: localize the different enzymes PDE1, PDE3, PDE4 and PDE5 which were aliquoted and frozen; from tissue; host or cells: bovine aortic media (vascular smooth muscle)
assay-summary: Selectivity: inhibition of PDE5, radioenzymatic phosphodiesterase assay
Format: biochemical, bovine
measurement-context: 10 μM test compound; vascular smooth muscle; read-out: PDE5 percentage inhibition at 10 μM
property: inhibition at 10 µM (%)

>>> df
                                   compound          tested_on  reported_value
0  COc1cc2c(cc1OC)N(C)C(=O)CN=C2c1cccnc1 [Compound 17b]  PDE5 (Bos taurus)              14
1  COc1cc2c(cc1OC)N(C)C(=O)CN=C2c1cccc(C(F)(F)F)c1  PDE5 (Bos taurus)              26
2  COc1cc2c(cc1OC)N(C)C(=O)CN=C2c1cccc(C(N)=O)c1  PDE5 (Bos taurus)            17.6
3  COc1cc2c(c(Br)c1OC)C(c1cccc(C(N)=O)c1)=NCC(=O)N2C  PDE5 (Bos taurus)            21.6

###

tested-on: PDE2 (Bos taurus, UniProt P14099)
Construct: PDE2 was prepared from bovine endothelial cells by the same methods; endogenous in cells; host or cells: bovine endothelial cells
Sequence (P14099 whole entry): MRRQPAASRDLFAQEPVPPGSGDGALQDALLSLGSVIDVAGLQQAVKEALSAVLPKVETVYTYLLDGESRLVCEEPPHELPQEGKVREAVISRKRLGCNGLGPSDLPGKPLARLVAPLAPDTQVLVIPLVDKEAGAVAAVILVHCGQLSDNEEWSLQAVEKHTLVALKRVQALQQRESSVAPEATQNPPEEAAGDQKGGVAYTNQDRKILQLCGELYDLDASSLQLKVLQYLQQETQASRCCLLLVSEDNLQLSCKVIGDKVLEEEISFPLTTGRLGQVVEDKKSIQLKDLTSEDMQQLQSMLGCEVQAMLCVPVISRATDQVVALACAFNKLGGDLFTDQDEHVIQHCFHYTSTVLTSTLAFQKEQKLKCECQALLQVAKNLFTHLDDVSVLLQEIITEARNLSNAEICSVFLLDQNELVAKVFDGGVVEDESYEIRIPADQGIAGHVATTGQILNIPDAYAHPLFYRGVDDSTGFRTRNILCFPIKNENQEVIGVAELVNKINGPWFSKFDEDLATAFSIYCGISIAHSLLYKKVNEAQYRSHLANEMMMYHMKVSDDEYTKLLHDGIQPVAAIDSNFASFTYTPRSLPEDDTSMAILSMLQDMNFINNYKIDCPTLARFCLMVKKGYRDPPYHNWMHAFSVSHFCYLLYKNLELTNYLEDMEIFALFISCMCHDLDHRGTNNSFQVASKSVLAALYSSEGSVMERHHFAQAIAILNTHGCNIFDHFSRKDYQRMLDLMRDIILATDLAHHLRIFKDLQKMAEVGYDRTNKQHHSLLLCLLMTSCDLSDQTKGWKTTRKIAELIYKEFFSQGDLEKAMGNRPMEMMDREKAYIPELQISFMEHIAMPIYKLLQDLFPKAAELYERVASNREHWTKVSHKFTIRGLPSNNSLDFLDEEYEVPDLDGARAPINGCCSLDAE
assay-summary: Inhibition of PDE2, radioenzymatic phosphodiesterase assay
Format: biochemical, bovine
measurement-context: read-out: PDE2 percentage inhibition at 10 μM
property: inhibition at 10 µM (%)

In [3]: df
Out[3]:
                                    molecule                          tested_on  reported_value
 0  COc1cc2c(c(-c3ccccc3)c1OC)N(C)C(=O)CN=C2c1cccc(C#N)c1 [Compound 25a]  PDE2 (Bos taurus, UniProt P14099)               0
 1  COc1ccc2c(c1)C(c1cccc(C#N)c1)=NCC(=O)N2 [Compound 28c]  PDE2 (Bos taurus, UniProt P14099)            46.5
 2  COc1ccc2c(c1)NC(=O)CN=C2c1cccc(C#N)c1 [Compound 28a]  PDE2 (Bos taurus, UniProt P14099)            52.5
 3  COc1cc2c(cc1OC)N(Cc1ccccc1)C(=O)CN=C2c1cccc(C(N)=O)c1 [Compound 5h]  PDE2 (Bos taurus, UniProt P14099)               0
 4  COc1cc2c(cc1OC)N(C)C(=O)C(Cc1ccc(Cl)c(Cl)c1)N=C2c1cccc(C(N)=O)c1 (stereo not drawn) [Compound 5k]  PDE2 (Bos taurus, UniProt P14099)            67.8
 5  COc1cc2c(cc1OC)N(C)C(=O)CN=C2c1cccc(-c2cccc(C#N)c2)c1 [Compound 6l]  PDE2 (Bos taurus, UniProt P14099)            77.5
 6  COc1cc2c(cc1OC)N(Cc1ccc(C(F)(F)F)cc1)C(=O)CN=C2c1cccc(C#N)c1 [Compound 4i]  PDE2 (Bos taurus, UniProt P14099)            15.7
 7  CCN1C(=O)CN=C(c2cccc(C(F)(F)F)c2)c2cc(OC)c(OC)cc21 [Compound 4q]  PDE2 (Bos taurus, UniProt P14099)              32
 8  COc1cc2c(cc1OC)N(C)C(=O)CN=C2c1cccc(-c2cccc(C(N)=O)c2)c1 [Compound 6o]  PDE2 (Bos taurus, UniProt P14099)            79.3
 9  COc1cc2c(cc1OC)N(Cc1ccc(Cl)cc1)C(=O)CN=C2c1cccc(C#N)c1 [Compound 4c]  PDE2 (Bos taurus, UniProt P14099)            35.3
10  COc1cc2c(cc1OC)N(C)C(=O)CN=C2c1cccc(-c2nc(-c3ccccc3)cs2)c1 [Compound 9b]  PDE2 (Bos taurus, UniProt P14099)            91.4
11  COc1cc2c(cc1OC)N(Cc1ccccc1Cl)C(=O)CN=C2c1cccc(C#N)c1 [Compound 4h]  PDE2 (Bos taurus, UniProt P14099)              16
12  COc1cc2c(cc1O)C(c1cccc(C#N)c1)=NCC(=O)N2 [Compound 22b]  PDE2 (Bos taurus, UniProt P14099)             3.8
13  CCN1C(=O)CN=C(c2cccc(C#N)c2)c2cc(OC)c(OC)cc21 [Compound 4k]  PDE2 (Bos taurus, UniProt P14099)            75.9
14  CCCN1C(=O)CN=C(c2cccc(C#N)c2)c2cc(OC)c(OC)cc21 [Compound 4l]  PDE2 (Bos taurus, UniProt P14099)            72.1
15  COc1cc2c(c(-c3ccccc3)c1OC)C(c1cccc(C#N)c1)=NCC(=O)N2C [Compound 25b]  PDE2 (Bos taurus, UniProt P14099)            22.9
16  COc1cc2c(c(Br)c1O)C(c1cccc(C#N)c1)=NCC(=O)N2 [Compound 23b]  PDE2 (Bos taurus, UniProt P14099)            20.1
17  COc1cc2c(c(Br)c1OC)NC(=O)CN=C2c1ccccc1 [Compound 28f]  PDE2 (Bos taurus, UniProt P14099)            13.5
18  COc1cc2c(c(-c3ccccc3)c1OC)N(C)C(=O)CN=C2c1cccc(C(N)=O)c1 [Compound 5m]  PDE2 (Bos taurus, UniProt P14099)             5.9
19  COc1cc2c(cc1OC)-n1ccnc1CN=C2c1cccc(C#N)c1 [Compound 11a]  PDE2 (Bos taurus, UniProt P14099)              43
20  COc1cc2c(cc1OC)C(c1cccc(C#N)c1)=NCC(=S)N2 [Compound 10d]  PDE2 (Bos taurus, UniProt P14099)             5.5
21  CCN1C(=O)CN=C(c2cccc(C#CCOCc3ccccc3)c2)c2cc(OC)c(OC)cc21 [Compound 6k]  PDE2 (Bos taurus, UniProt P14099)            69.7
22  COc1cc2c(cc1OC)N(Cc1cccc(C(F)(F)F)c1)C(=O)CN=C2c1cccc(C#N)c1 [Compound 4g]  PDE2 (Bos taurus, UniProt P14099)            14.3
23  CCCN1C(=O)CN=C(c2cccc(C(F)(F)F)c2)c2cc(OC)c(OC)cc21 [Compound 4r]  PDE2 (Bos taurus, UniProt P14099)              34
24  COc1cc2c(cc1OC)N(C)C(=O)CN=C2c1cccc(C(=O)NCCCCCC(N)=O)c1 [Compound 36c]  PDE2 (Bos taurus, UniProt P14099)              46
25  COc1cc2c(c(-c3ccccc3)c1OC)C(c1cccc(C(N)=O)c1)=NCC(=O)N2C [Compound 5c]  PDE2 (Bos taurus, UniProt P14099)            53.3
26  COc1cc2c(cc1OC)N(Cc1cccc(Cl)c1)C(=O)CN=C2c1cccc(C#N)c1 [Compound 4f]  PDE2 (Bos taurus, UniProt P14099)            17.1
27  COc1cc2c(cc1OC)N(C)C(=O)CN=C2c1cccc(-c2ccc(C#N)cc2)c1 [Compound 6m]  PDE2 (Bos taurus, UniProt P14099)            82.3
28  COc1cc2c(cc1OC)N(Cc1ccccc1)C(=O)CN=C2c1cccc(C(F)(F)F)c1 [Compound 4s]  PDE2 (Bos taurus, UniProt P14099)              14
29  COc1cccc2c1C(c1ccccc1)=NCC(=O)N2 [Compound 28d]  PDE2 (Bos taurus, UniProt P14099)             4.7

Measured values drawn from patent US20060128695A1 for this set.
